Measured IC50 of individual entries
biological target: Wee1-like protein kinase (Homo sapiens, UniProt P30291)
Sequence (P30291 whole entry): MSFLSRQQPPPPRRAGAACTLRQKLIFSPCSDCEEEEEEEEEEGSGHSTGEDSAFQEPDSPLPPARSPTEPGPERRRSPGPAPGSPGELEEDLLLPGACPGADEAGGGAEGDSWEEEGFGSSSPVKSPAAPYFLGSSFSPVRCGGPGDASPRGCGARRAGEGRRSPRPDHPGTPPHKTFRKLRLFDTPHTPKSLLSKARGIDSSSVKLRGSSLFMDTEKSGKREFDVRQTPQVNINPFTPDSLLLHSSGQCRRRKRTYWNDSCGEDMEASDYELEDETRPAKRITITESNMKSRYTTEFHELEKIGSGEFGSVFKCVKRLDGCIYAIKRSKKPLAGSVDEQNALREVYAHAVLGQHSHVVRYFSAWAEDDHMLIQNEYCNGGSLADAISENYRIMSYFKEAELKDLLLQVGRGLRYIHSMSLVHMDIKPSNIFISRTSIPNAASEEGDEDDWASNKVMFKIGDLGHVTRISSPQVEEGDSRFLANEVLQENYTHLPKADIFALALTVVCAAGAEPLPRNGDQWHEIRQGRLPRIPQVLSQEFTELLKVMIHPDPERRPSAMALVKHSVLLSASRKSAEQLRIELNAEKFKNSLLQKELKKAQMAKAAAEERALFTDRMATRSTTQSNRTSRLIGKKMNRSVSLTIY
Write the number in nM without appending the unit.

The cases that follow already have their IC50 on record.
**Q:** State, for Wee1-like protein kinase (Homo sapiens, UniProt P30291), measured IC50 of the molecule listed here: Cn1c2cc(SCCCn3cccc3)c(O)cc2c2c3c(c(-c4ccccc4Cl)cc21)C(=O)NC3=O
**A:** 20

**Q:** State, for Wee1-like protein kinase (Homo sapiens, UniProt P30291), measured IC50 of the molecule listed here: O=C1NC(=O)c2c1c(-c1ccccc1)c(-c1ccccc1)c1[nH]c3ccc(O)cc3c21
**A:** 2340

**Q:** State, for Wee1-like protein kinase (Homo sapiens, UniProt P30291), measured IC50 of the molecule listed here: O=C1NC(=O)c2c1c(-c1cccc(O)c1Cl)cc1[nH]c3ccc(O)cc3c21
**A:** 28.2

**Q:** State, for Wee1-like protein kinase (Homo sapiens, UniProt P30291), measured IC50 of the molecule listed here: NN1C(=O)c2c(-c3ccccc3)cc3[nH]c4ccc(O)cc4c3c2C1=O
**A:** 3980

***
**Q:** State, for Wee1-like protein kinase (Homo sapiens, UniProt P30291), measured IC50 of the molecule listed here: O=C1NC(=O)c2c1c(-c1ccccc1Cl)cc1c2c2cc(O)c(CCCCn3cccc3)cc2n1CCO
**A:** 24

// data source = ChEMBL document CHEMBL1137719
